- target.desc: Cdk2(T182C) (C177A) (Homo sapiens, UniProt P24941, C177A/T182C)
- Construct: poly-histidine; made in house; host or cells: E. coli
- protocol.description: Kinetic thiol consumption assay with Cdk2 mutant T182C
- Type: binding
- experimental.setup: Protein: Cdk2; cysteine position T182C; additional mutation C177A; in h^-1
endpoint: Rate constant with Cdk2 T182C
Enter a number only.

>  <molecule>
C=CC(=O)Nc1ccccc1C(=O)c1ccccc1

>  <target.desc>
Cdk2(T182C) (C177A) (Homo sapiens, UniProt P24941, C177A/T182C)

>  <value.reported>
0.1284

$$$$

Documented Rate constant with Cdk2 T182C of C=CC(=O)Nc1cccc(Nc2ncnc3cc(OC)c(OC)cc23)c1 : 0.5214

----------
- target.desc: Cdk2[C177A, F80C, K278C] (Homo sapiens, UniProt P24941, C177A/F80C/K278C)
- Construct: poly-histidine; made in house; host or cells: E. coli
- protocol.description: Kinetic thiol consumption assay with mutant Cdk2 as model thiol
- Type: binding
- Design: unit not given here
- experimental.setup: 500 μM ligand, 5 μM thiol, phosphate buffer pH 8
Response key: condition met means Rate constant with Cdk2[C177A, F80C, K278C] (k(Cdk2_mut)) >= 0.02; condition not met means Rate constant with Cdk2[C177A, F80C, K278C] (k(Cdk2_mut)) < 0.02.

Solved entries (count: 5):
>  <compound>
C=CC(=O)Nc1ccc(-c2ncccn2)cc1 [CA-037]

>  <class.label>
condition met

$$$$
>  <compound>
C=CC(=O)N1CC(Cc2ccccc2)C1 [CA-072]

>  <class.label>
condition not met

$$$$
>  <compound>
C=CC(=O)N1CCC(NC(=O)C2CCC2)C1 (stereo not drawn) [CA-088]

>  <class.label>
condition not met

$$$$
>  <compound>
C=CC(=O)N(Cc1ccco1)Cc1ccco1 [CA-099]

>  <class.label>
condition not met

$$$$
>  <compound>
C=CC(=O)Nc1cccc(Nc2ncnc3cc(OC)c(OC)cc23)c1 [GC248]

>  <class.label>
condition not met

$$$$

Please look at the following compound next.
Prompt line: Tell me whether Rate constant with Cdk2[C177A, F80C, K278C] (k(Cdk2_mut)) is at least 0.02 here: C=CC(=O)Nc1ccccc1N1CCOCC1 [CA-030]
Response line: condition met

----------
- target.desc: human cyclin-dependent kinase 2 (Cdk2) (Homo sapiens, UniProt P24941)
- Construct: poly-histidine; made in house; host or cells: E. coli
- protocol.description: Kinetic thiol consumption assay with wild type Cdk2 (C177)
- Type: binding
- Design: key: k(Cdk2) divided by k(model thiol)
- experimental.setup: Cdk2 WT, no additional mutations
Each entry below lists one item and its recorded Rate enhancement, Cdk2 WT value.

Documented Rate enhancement, Cdk2 WT of C=CC(=O)Nc1cccc(C(F)(F)F)c1 [EL-1007] : 1.411

Documented Rate enhancement, Cdk2 WT of C=CC(=O)NC(C)c1cccc(N2CCOCC2)c1 (stereo not drawn) : 0.3642

Documented Rate enhancement, Cdk2 WT of C=CC(=O)N1C(C(=O)c2ccccc2)C1c1ccccc1 (stereo not drawn) : 0.2251

----------
- target.desc: Cdk2(C177A, F80C) (Homo sapiens, UniProt P24941, C177A/F80C)
- Construct: poly-histidine; made in house; host or cells: E. coli
- protocol.description: Kinetic thiol consumption assay with Cdk2 mutant F80C, incl. kobs versus concentration (Kd, k2)
- Type: binding
- Parameters: key: Cdk2 rate constant divided by model-thiol rate constant
- experimental.setup: Cdk2 F80C, additional mutation C177A
endpoint: Rate enhancement, Cdk2 F80C
Enter a number only.

Past entries and their recorded results:
>  <molecule>
C=CC(=O)N1CCC2(CC1)CC2C(=O)OC (stereo not drawn)

>  <value.reported>
0

$$$$
>  <molecule>
O=C(CCl)N1CCCCCC1

>  <value.reported>
0

$$$$
>  <molecule>
C=CC(=O)NC1c2ccccc2Oc2ccccc21

>  <value.reported>
0

$$$$
>  <molecule>
C=CC(=O)N1CCCc2sccc2C1

>  <value.reported>
1.278

$$$$
>  <molecule>
C=CC(=O)N1CCn2c(Cc3ccccc3)nnc2C1

>  <value.reported>
0.1058

$$$$

Documented Rate enhancement, Cdk2 F80C of C=CC(=O)Nc1ccccc1-c1ccccc1 : 1.711

Documented Rate enhancement, Cdk2 F80C of C=CC(=O)NCc1ccc(OC)cc1 : 0.5692

Documented Rate enhancement, Cdk2 F80C of C=CC(=O)N1CCCC1CC1CC2CCC1C2 (stereo not drawn) : 0.4785

Documented Rate enhancement, Cdk2 F80C of Cn1cc(S(=O)(=O)N2CCOCC2)cc1C(=O)NC(=O)CCl : 49.31

Documented Rate enhancement, Cdk2 F80C of C=CC(=O)Nc1ccc(C(=O)OC)cc1 : 1.175

Documented Rate enhancement, Cdk2 F80C of C=CC(=O)N1CCOC2(CCCCC2)C1 : 1.419

Documented Rate enhancement, Cdk2 F80C of C=CC(=O)N(C1CC1)C1CCCCC1C1CCCCC1 (stereo not drawn) : 4.621
